tested on: Escherichia coli; assay: Antibacterial activity against resistant Escherichia coli SQ1712058G incubated for 20 hrs by broth dilution method; assay type: functional
MIC reference

Here is how some molecules turned out for MIC.
molecule	endpointValue
CC[C@H]1OC(=O)[C@@](C)(F)C(=O)[C@H](C)[C@@H](O[C@@H]2O[C@H](C)C[C@H](N(C)C)[C@H]2O)[C@](C)(OC)C[C@@H](C)C(=O)[C@H](C)[C@H]2N(CCCCn3cc(-c4cc(O)cc([N+](=O)[O-])c4)nn3)C(=O)O[C@]12C	> 32 µg/mL
CC[C@H]1OC(=O)[C@@](C)(F)C(=O)[C@H](C)[C@@H](O[C@@H]2O[C@H](C)C[C@H](N(C)C)[C@H]2O)[C@](C)(OC)C[C@@H](C)C(=O)[C@H](C)[C@H]2N(CCCCn3cc(-c4ccc(OC)cc4)nn3)C(=O)O[C@]12C	> 64 µg/mL
CC[C@H]1OC(=O)[C@@](C)(F)C(=O)[C@H](C)[C@@H](O[C@@H]2O[C@H](C)C[C@H](N(C)C)[C@H]2O)[C@](C)(OC)C[C@@H](C)C(=O)[C@H](C)[C@H]2N(CCCCn3cc(-c4cc(OC)cc([N+](=O)[O-])c4)nn3)C(=O)O[C@]12C	8 µg/mL
CC[C@H]1OC(=O)[C@@](C)(F)C(=O)[C@H](C)[C@@H](O[C@@H]2O[C@H](C)C[C@H](N(C)C)[C@H]2O)[C@](C)(OC)C[C@@H](C)C(=O)[C@H](C)[C@H]2N(CCCCn3cc(-c4cnc(N)s4)nn3)C(=O)O[C@]12C	> 32 µg/mL
CC[C@H]1OC(=O)[C@@](C)(F)C(=O)[C@H](C)[C@@H](O[C@@H]2O[C@H](C)C[C@H](N(C)C)[C@H]2O)[C@](C)(OC)C[C@@H](C)C(=O)[C@H](C)[C@H]2N(CCCCn3cc(-c4cccs4)nn3)C(=O)O[C@]12C	> 64 µg/mL
CC[C@H]1OC(=O)[C@@](C)(F)C(=O)[C@H](C)[C@@H](O[C@@H]2O[C@H](C)C[C@H](N(C)C)[C@H]2O)[C@](C)(OC)C[C@@H](C)C(=O)[C@H](C)[C@H]2N(CCCCn3cc(-c4cccc(N)c4)nn3)C(=O)O[C@]12C [SOLITHROMYCIN]	> 32 µg/mL
CC[C@H]1OC(=O)[C@@](C)(F)C(=O)[C@H](C)[C@@H](O[C@@H]2O[C@H](C)C[C@H](N(C)C)[C@H]2O)[C@](C)(OC)C[C@@H](C)C(=O)[C@H](C)[C@H]2N(CCCCn3cc(COc4ccccc4)nn3)C(=O)O[C@]12C	> 32 µg/mL
CC[C@H]1OC(=O)[C@@](C)(F)C(=O)[C@H](C)[C@@H](O[C@@H]2O[C@H](C)C[C@H](N(C)C)[C@H]2O)[C@](C)(OC)C[C@@H](C)C(=O)[C@H](C)[C@H]2N(CCCCn3cc(-c4ccc(N)cc4)nn3)C(=O)O[C@]12C	> 32 µg/mL
CC[C@H]1OC(=O)[C@@](C)(F)C(=O)[C@H](C)[C@@H](O[C@@H]2O[C@H](C)C[C@H](N(C)C)[C@H]2O)[C@](C)(OC)C[C@@H](C)C(=O)[C@H](C)[C@H]2N(CCCCn3cc(-c4cccc(NC(C)=O)c4)nn3)C(=O)O[C@]12C	> 64 µg/mL

Switching to the query record.
Exercise: // returns reported MIC for input CC[C@H]1OC(=O)[C@@](C)(F)C(=O)[C@H](C)[C@@H](O[C@@H]2O[C@H](C)C[C@H](N(C)C)[C@H]2O)[C@](C)(OC)C[C@@H](C)C(=O)[C@H](C)[C@H]2N(CCCCn3cc(-c4ccsc4)nn3)C(=O)O[C@]12C
Solution: > 64 µg/mL
